- Tested on: HCT-116
- measurement description: Cytotoxicity against human HCT116 cells assessed as cell growth at 100 uM after 48 hrs by sulforhodamine B assay relative to control
- Type: functional
- conditions used: HCT-116, 48 h, read-out: Activity
test readout: growth at 100 µM (%)
I only need the number, in %, no unit after it.

Worked cases, answers included:
COc1cc2c(cc1OC)C(=O)/C(=C/c1cc(-c3ccc4c(c3)OCO4)n[nH]1)C2
-52
COc1cc(C(=O)/C=C/c2cc(-c3ccc4c(c3)OCO4)n[nH]2)cc(OC)c1OC
-47
COc1ccc(-c2cc(/C=C/C(=O)c3ccc(N)cc3)[nH]n2)cc1OC
-89
COc1ccc(-c2cc(/C=C/C(=O)c3ccc(N)cc3)[nH]n2)cc1
-15

Give growth at 100 µM for this entry on HCT-116: `COc1cc(-c2cc(/C=C/C(=O)c3ccc4c(c3)OCO4)[nH]n2)cc(OC)c1OC` 1

Quote HCT-116 growth at 100 µM for entry `COc1ccc(C(=O)/C=C/c2cc(-c3ccc(OC)c(OC)c3)n[nH]2)cc1OC` . -45

* * *

- System: MDA-MB-468
- measurement description: Cytotoxicity against human MDA-MB-468 cells assessed as growth inhibition after 48 hrs by sulforhodamine B assay
- Type: functional
- conditions used: MDA-MB-468, 48 h
test readout: LC50 (µM)
Quick reminder: number only, in µM, skip the unit.

Answered cases to consult:
COc1ccc(-c2cc(/C=C/C(=O)c3ccc(N)cc3)[nH]n2)cc1
7.45
COc1ccc(C(=O)/C=C/c2cc(-c3ccc4c(c3)OCO4)n[nH]2)cc1OC
13.5

Attention now turns to another entry.
Report LC50 under test system MDA-MB-468 for `COc1ccc(-c2cc(/C=C/C(=O)c3ccc(N)cc3)[nH]n2)cc1OC` . 7.8

* * *

- Test system: KM12
- measurement description: Cytotoxicity against human KM12 cells assessed as cell growth at 10 uM after 48 hrs by sulforhodamine B assay relative to control
- Assay type: functional
- conditions used: KM12, 48 h, read-out: Activity
growth at 10 µM for assorted compounds
Express it in %; write the number only.

COc1cc(-c2cc(/C=C/C(=O)c3ccc4c(c3)OCO4)[nH]n2)cc(OC)c1OC
-69
COc1ccc(C(=O)/C=C/c2cc(-c3ccc(OC)c(OC)c3)n[nH]2)cc1OC
-80
COc1cc2c(cc1OC)C(=O)/C(=C/c1cc(-c3ccc4c(c3)OCO4)n[nH]1)C2
-87

Here is another compound to look at.
Write down measured growth at 10 µM (KM12) for this compound. `COc1cc(-c2cc(/C=C/C(=O)c3ccc(Cl)c(Cl)c3)[nH]n2)cc(OC)c1OC` 19

* * *

- Test system: SK-MEL-2
- measurement description: Cytotoxicity against human SK-MEL-2 cells assessed as growth inhibition after 48 hrs by sulforhodamine B assay
- Type: functional
- conditions used: SK-MEL-2, 48 h
Known TGI of a selection of molecules
Numbers only here, please. The scale is µM.

Example entries and their recorded answers appear below.
COc1ccc(C(=O)/C=C/c2cc(-c3ccc(OC)c(OC)c3)n[nH]2)cc1OC
5.17
COc1ccc(C(=O)/C=C/c2cc(-c3cc(OC)c(OC)c(OC)c3)n[nH]2)cc1
19.6
COc1cc(-c2cc(/C=C/C(=O)c3ccc(Cl)c(Cl)c3)[nH]n2)cc(OC)c1OC
34.1

Proceeding to the next molecule to report its TGI.
State recorded TGI with SK-MEL-2, entry `COc1cc(-c2cc(/C=C/C(=O)c3ccc(F)c(F)c3)[nH]n2)cc(OC)c1OC` , no comment. 5.89

* * *

- Test system: NCI-H23
- measurement description: Cytotoxicity against human NCI-H23 cells assessed as growth inhibition after 48 hrs by sulforhodamine B assay
- Type: functional
- conditions used: NCI-H23, 48 h
test readout: TGI (µM)
Expressed in µM, but write only the number.

COc1ccc(C(=O)/C=C/c2cc(-c3ccc4c(c3)OCO4)n[nH]2)cc1OC
19.6

Consider now this further compound.
For `COc1cc(-c2cc(/C=C/C(=O)c3ccc(N)cc3)[nH]n2)cc(OC)c1OC` , write its TGI. 6.79

* * *

- System: SK-MEL-28
- measurement description: Cytotoxicity against human SK-MEL-28 cells assessed as growth inhibition after 48 hrs by sulforhodamine B assay
- Assay type: functional
- conditions used: SK-MEL-28, 48 h
test readout: LC50

For orientation, consider the following solved cases.
COc1ccc(-c2cc(/C=C/C(=O)c3ccc(N)cc3)[nH]n2)cc1
8.57 µM
COc1cc(-c2cc(/C=C/C(=O)c3ccc(F)c(F)c3)[nH]n2)cc(OC)c1OC
> 100 µM
COc1cc(-c2cc(/C=C/C(=O)c3ccc(Cl)c(Cl)c3)[nH]n2)cc(OC)c1OC
> 100 µM

Provide measured LC50 value, entry: `COc1cc(-c2cc(/C=C/C(=O)c3ccc4c(c3)OCO4)[nH]n2)cc(OC)c1OC` > 100 µM

* * *

- Tested on: BT-549
- measurement description: Cytotoxicity against human BT549 cells assessed as cell growth at 100 uM after 48 hrs by sulforhodamine B assay relative to control
- Type: functional
- conditions used: BT-549, 48 h, read-out: Activity
test readout: growth at 100 µM (%)
# value in %; strip the unit string

Let me know recorded growth at 100 µM for `COc1ccc(-c2cc(/C=C/C(=O)c3ccc(N)cc3)[nH]n2)cc1OC` , thanks. -98

State, in one line, measured growth at 100 µM of `COc1cc(C(=O)/C=C/c2cc(-c3ccc4c(c3)OCO4)n[nH]2)cc(OC)c1OC` -77

Tell me growth at 100 µM reported for `COc1cc(-c2cc(/C=C/C(=O)c3ccc(N)cc3)[nH]n2)cc(OC)c1OC` -97

Specify measured growth at 100 µM for `COc1ccc(C(=O)/C=C/c2cc(-c3ccc(OC)c(OC)c3)n[nH]2)cc1OC` . -89

Tell me growth at 100 µM reported for `COc1ccc(C(=O)/C=C/c2cc(-c3cc(OC)c(OC)c(OC)c3)n[nH]2)cc1` -49

Give growth at 100 µM for the following compound: `COc1ccc(-c2cc(/C=C/C(=O)c3ccc(N)cc3)[nH]n2)cc1` -61

* * *

# key: entry, value: growth at 100 µM
- Tested on: COLO 205
- measurement description: Cytotoxicity against human COLO205 cells assessed as cell growth at 100 uM after 48 hrs by sulforhodamine B assay relative to control
- Type: functional
- conditions used: COLO 205, 48 h, read-out: Activity
Could you give me the number in %? Just the number is fine.

COc1cc(C(=O)/C=C/c2cc(-c3cc(OC)c(OC)c(OC)c3)n[nH]2)cc(OC)c1OC
-100

Read the entry `COc1cc(-c2cc(/C=C/C(=O)c3ccc(N)cc3)[nH]n2)cc(OC)c1OC` and write its reported growth at 100 µM. -78

Give the measured growth at 100 µM for `COc1ccc(-c2cc(/C=C/C(=O)c3ccc(N)cc3)[nH]n2)cc1OC` -78

Name the recorded growth at 100 µM of the molecule listed here: `COc1cc(C(=O)/C=C/c2cc(-c3ccc4c(c3)OCO4)n[nH]2)cc(OC)c1OC` -74

Determine its reported growth at 100 µM: `COc1cc(-c2cc(/C=C/C(=O)c3ccc(F)c(F)c3)[nH]n2)cc(OC)c1OC` -99

Look up growth at 100 µM of `COc1ccc(-c2cc(/C=C/C(=O)c3ccc(N)cc3)[nH]n2)cc1` and report it. -74

Answer with the recorded growth at 100 µM for the molecule listed here: `COc1ccc(C(=O)/C=C/c2cc(-c3cc(OC)c(OC)c(OC)c3)n[nH]2)cc1` -81

* * *

- Test system: SN12C
- measurement description: Cytotoxicity against human SN12C cells assessed as cell growth at 0.1 uM after 48 hrs by sulforhodamine B assay relative to control
- Assay type: functional
- conditions used: read-out: Activity
test readout: growth at 0.1 µM
Answer as a quantity: numeral, then unit.

For orientation, consider the following solved cases.
COc1cc2c(cc1OC)C(=O)/C(=C/c1cc(-c3ccc4c(c3)OCO4)n[nH]1)C2
93%
COc1ccc(-c2cc(/C=C/C(=O)c3ccc(OC)c(OC)c3)[nH]n2)cc1
93%
COc1ccc(C(=O)/C=C/c2cc(-c3cc(OC)c(OC)c(OC)c3)n[nH]2)cc1OC
94%
COc1cc(-c2cc(/C=C/C(=O)c3ccc(N)cc3)[nH]n2)cc(OC)c1OC
99%
COc1cc(-c2cc(/C=C/C(=O)c3ccc4c(c3)OCO4)[nH]n2)cc(OC)c1OC
96%

# return growth at 0.1 µM for `COc1cc(C(=O)/C=C/c2cc(-c3cc(OC)c(OC)c(OC)c3)n[nH]2)cc(OC)c1OC` , test system: SN12C 98%

Name the value of growth at 0.1 µM reported for `COc1ccc(-c2cc(/C=C/C(=O)c3ccc(N)cc3)[nH]n2)cc1OC` when tested on SN12C. 99%
